Below, each entry is listed with its recorded Papp.
experimentNotes: Permeability across artificial membrane
Type: ADME
settings: PAMPA; read-out: permeability
// units = ×10⁻⁶ cm/s; emit number, no label

{"smilesStr": "COc1cccc(NC(=O)Nc2cccn(Cc3ccccc3Cl)c2=O)c1", "valueMeasured": 55}

Quick one: Papp for `COc1cccc(NC(=O)Nc2cccn(Cc3c(F)cccc3Cl)c2=O)c1` ? 22

* * *

Target chain: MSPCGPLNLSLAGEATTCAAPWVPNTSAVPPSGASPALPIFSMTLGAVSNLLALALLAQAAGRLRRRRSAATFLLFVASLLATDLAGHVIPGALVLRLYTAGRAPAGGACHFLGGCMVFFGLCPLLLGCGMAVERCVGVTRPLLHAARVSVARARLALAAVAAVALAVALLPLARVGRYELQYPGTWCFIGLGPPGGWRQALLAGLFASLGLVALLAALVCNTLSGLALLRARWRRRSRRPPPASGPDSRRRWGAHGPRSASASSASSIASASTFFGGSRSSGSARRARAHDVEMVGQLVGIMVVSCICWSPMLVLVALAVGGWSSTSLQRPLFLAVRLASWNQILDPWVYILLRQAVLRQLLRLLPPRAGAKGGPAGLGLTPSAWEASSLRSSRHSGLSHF
pKi: −log10 of the molar value.
metricName: pKi

Which pKi reading was recorded for the compound `CCc1cccc(NC(=O)Nc2cccn(Cc3ccccc3Cl)c2=O)c1` ? < 5.00

* * *

assayedSystem: Cytochrome P450 2D6 (Homo sapiens)
Sequence (P10635 whole entry): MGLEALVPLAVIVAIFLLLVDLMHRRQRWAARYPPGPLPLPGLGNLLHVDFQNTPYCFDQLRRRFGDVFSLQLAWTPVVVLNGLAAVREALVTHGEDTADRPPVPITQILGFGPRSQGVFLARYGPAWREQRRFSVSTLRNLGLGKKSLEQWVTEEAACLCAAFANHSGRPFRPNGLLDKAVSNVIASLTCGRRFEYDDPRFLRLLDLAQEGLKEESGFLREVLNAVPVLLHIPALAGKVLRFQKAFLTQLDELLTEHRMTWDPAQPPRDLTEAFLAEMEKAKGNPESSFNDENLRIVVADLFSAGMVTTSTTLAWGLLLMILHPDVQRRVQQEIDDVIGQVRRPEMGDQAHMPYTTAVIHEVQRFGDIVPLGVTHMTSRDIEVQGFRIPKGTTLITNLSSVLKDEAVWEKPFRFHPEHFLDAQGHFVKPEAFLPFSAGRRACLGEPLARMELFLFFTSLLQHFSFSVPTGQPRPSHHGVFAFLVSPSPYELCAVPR
metricName: IC50

For the record `COc1cccc(NC(=O)Nc2cccn(Cc3c(F)cccc3Cl)c2=O)c1` , what value of IC50 is listed for Cytochrome P450 2D6 (Homo sapiens)? > 25 µM

* * *

experimentNotes: Half life in rat blood at 1.2 mg/kg, iv and 2 mg/kg, po
Format: ADME, organism-based
metricName: half-life (h)
Your answer is read as h, so omit the unit and give the number.

Give the measured half-life of `COc1cccc(NC(=O)Nc2cccn(Cc3ccccc3Cl)c2=O)c1` . 1.3

* * *

log10 Ki values by entry
assayedSystem: Prostaglandin E2 receptor EP3 subtype (Homo sapiens, UniProt P43115)
Sequence (P43115 whole entry): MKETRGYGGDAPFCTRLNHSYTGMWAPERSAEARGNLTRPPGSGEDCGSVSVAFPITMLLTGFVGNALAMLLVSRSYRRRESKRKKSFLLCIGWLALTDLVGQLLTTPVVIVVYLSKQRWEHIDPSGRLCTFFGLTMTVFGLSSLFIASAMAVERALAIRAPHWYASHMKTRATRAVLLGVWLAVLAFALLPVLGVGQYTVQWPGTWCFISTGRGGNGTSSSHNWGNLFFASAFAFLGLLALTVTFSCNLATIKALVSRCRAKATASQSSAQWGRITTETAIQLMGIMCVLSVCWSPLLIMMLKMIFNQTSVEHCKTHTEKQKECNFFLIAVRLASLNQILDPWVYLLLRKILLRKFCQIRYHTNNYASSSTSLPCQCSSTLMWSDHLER
experimentNotes: Antagonist activity at human EP3 receptor expressed in human U2OS cells assessed as inhibition of PGE2-induced intracellular calcium mobilization by FLIPR assay
A difference of one corresponds to tenfold Ki; all values are log10 with Ki in nM.

Worked examples, 8 molecules total:
{"smilesStr": "COc1cccc(NC(=O)Nc2cccn(Cc3cccc(F)c3)c2=O)c1", "valueMeasured": 3.00}
{"smilesStr": "COc1cccc(Cn2cccc(NC(=O)Nc3cccc(OC)c3)c2=O)c1", "valueMeasured": 3.30}
{"smilesStr": "CCc1cccc(NC(=O)Nc2ccc(C)n(Cc3ccccc3Cl)c2=O)c1", "valueMeasured": 2.10}
{"smilesStr": "CCc1cccc(NC(=O)Nc2cc(C)cn(Cc3ccccc3Cl)c2=O)c1", "valueMeasured": 2.30}
{"smilesStr": "CCc1ccccc1NC(=O)Nc1cccn(Cc2ccccc2Cl)c1=O", "valueMeasured": 3.60}
{"smilesStr": "Cc1cccc(NC(=O)Nc2cccn(Cc3ccccc3Cl)c2=O)c1", "valueMeasured": 2.40}
{"smilesStr": "O=C(Nc1ccccc1Cl)Nc1cccn(Cc2ccccc2Cl)c1=O", "valueMeasured": 2.10}
{"smilesStr": "COc1cccc(NC(=O)Nc2cccn(Cc3ccccc3C)c2=O)c1", "valueMeasured": 3.40}

// moving on: another record for log10 Ki
// lookup log10 Ki | system=Prostaglandin E2 receptor EP3 subtype (Homo sapiens, UniProt P43115) | key= `CCc1cccc(NC(=O)Nc2cc(Cl)cn(Cc3ccccc3Cl)c2=O)c1` 2.70
